Hello, the source for this data is patent US12435072B2, in case you need it.

# System: CYP3A4&5
# measurement-notes: CYP inhibition in human liver microsomes, CYP3A4&5 (testosterone)
# Type: in vitro ADME
# condition-details: probe testosterone, substrate testosterone, read-out: CYP3A4&5 testosterone Inh %
// inhibition at 10 µM lookup, one value per entry

{"columns": ["compound", "units-of-measure", "inhibition at 10 µM"],
 "data": [
  ["Cc1nccn1Cc1ccc(-c2cc(CC(C)C)sc2S(=O)(=O)NC(=O)NCc2ccccc2)cc1F [Example 12]", "%", 24],
  ["CC(C)Cc1cc(-c2ccc(Cn3ccnc3C(C)C)c(F)c2)c(S(=O)(=O)NC(=O)NCCC(F)(F)F)s1.O=C(O)C(F)(F)F [Example 41, trifluoroacetic acid]", "%", 10],
  ["Cc1nccn1Cc1ccc(-c2cc(CC(C)C)sc2S(=O)(=O)NC(=O)NC(C)c2ccccn2)cc1F (centres unmarked) [Example 25]", "%", 15],
  ["Cc1nccn1Cc1ccc(-c2cc(CC(C)C)sc2S(=O)(=O)NC(=O)NCc2cc(Cl)ccn2)cc1F.O=C(O)C(F)(F)F [Example 38, trifluoroacetic acid]", "%", 13],
  ["Cc1nccn1Cc1ccc(-c2cc(CC(C)C)sc2S(=O)(=O)NC(=O)NCc2ccc(F)c(F)c2)cc1F.O=C(O)C(F)(F)F [Example 34, trifluoroacetic acid]", "%", 60],
  ["CCc1nccn1Cc1ccc(-c2cc(CC(C)C)sc2S(=O)(=O)NC(=O)NCc2ccc(F)cc2)cc1F.O=C(O)C(F)(F)F [Example 32, trifluoroacetic acid]", "%", 10],
  ["Cc1nccn1Cc1ccc(-c2cc(CC(C)C)sc2S(=O)(=O)NC(=O)NCCCC(F)(F)F)cc1F [Example 18]", "%", 24],
  ["CCc1nccn1Cc1ccc(-c2cc(CC(C)C)sc2S(=O)(=O)NC(=O)NCc2ccccn2)cc1 [Example 9]", "%", 17],
  ["Cc1nccn1Cc1ccc(-c2cc(CC(C)C)sc2S(=O)(=O)NC(=O)NCc2cccs2)cc1F.O=C(O)C(F)(F)F [Example 35, trifluoroacetic acid]", "%", 25],
  ["Cc1nccn1Cc1ccc(-c2cc(CC(C)C)sc2S(=O)(=O)NC(=O)NCc2ccccn2)cc1 [Example 2]", "%", 0.3],
  ["CCCCNC(=O)NS(=O)(=O)c1sc(CC(C)C)cc1-c1ccc(Cn2ccnc2C)cc1 [Example 4]", "%", 8.2],
  ["Cc1nccn1Cc1ccc(-c2cc(CC(C)C)sc2S(=O)(=O)NC(=O)NCc2nccn2C)cc1F [Example 15]", "%", 12],
  ["Cc1nccn1Cc1ccc(-c2cc(CC(C)C)sc2S(=O)(=O)NC(=O)NCCC(F)(F)F)cc1 [Example 3]", "%", 8.2],
  ["CCc1nccn1Cc1ccc(-c2cc(CC(C)C)sc2S(=O)(=O)NC(=O)NCCOC)cc1 [Example 7]", "%", 3]
]}

###

// half-life at 1 μM lookup, one value per entry
# measurement-notes: Metabolic stability in pooled human liver microsomes
# Format: in vitro ADME
# condition-details: pooled human liver microsomes 0.5 mg/ml, with 1 mM NADPH, 1 μM test compound, 37° C., read-out: T1/2, + NaDPH
quantity: half-life at 1 μM (min)

{"columns": ["compound", "quantity", "units-of-measure", "result-operator", "experimental-result"],
 "data": [
  ["CCc1nccn1Cc1ccc(-c2cc(CC(C)C)sc2S(=O)(=O)NC(=O)NCCC(F)(F)F)cc1F.O=C(O)C(F)(F)F [Example 30]", "half-life at 1 μM", "min", "=", 40],
  ["CC(C)Cc1cc(-c2ccc(Cn3ccnc3C(C)C)c(F)c2)c(S(=O)(=O)NC(=O)NCCC(F)(F)F)s1.O=C(O)C(F)(F)F [Example 41]", "half-life at 1 μM", "min", "=", 43],
  ["CCc1nccn1Cc1ccc(-c2cc(CC(C)C)sc2S(=O)(=O)NC(=O)NCc2ccccc2)cc1 [Example 6]", "half-life at 1 μM", "min", "=", 24],
  ["CCc1nccn1Cc1ccc(-c2cc(CC(C)C)sc2S(=O)(=O)NC(=O)NCc2ccccn2)cc1 [Example 9]", "half-life at 1 μM", "min", ">", 60],
  ["CCCCNC(=O)NS(=O)(=O)c1sc(CC(C)C)cc1-c1ccc(Cn2ccnc2C)cc1 [Example 4]", "half-life at 1 μM", "min", "=", 39],
  ["Cc1nccn1Cc1ccc(-c2cc(CC(C)C)sc2S(=O)(=O)NC(=O)NCc2cc(Cl)ccn2)cc1F.O=C(O)C(F)(F)F [Example 38]", "half-life at 1 μM", "min", "=", 27],
  ["CCc1nccn1Cc1ccc(-c2cc(CC(C)C)sc2S(=O)(=O)NC(=O)NCCOC)cc1 [Example 7]", "half-life at 1 μM", "min", ">", 60]
]}
